Answer each item with its documented pIC50.
# Experimental System: IMP-1 (Serratia marcescens, UniProt P52699)
# Sequence (P52699 whole entry, looked up, species assumed): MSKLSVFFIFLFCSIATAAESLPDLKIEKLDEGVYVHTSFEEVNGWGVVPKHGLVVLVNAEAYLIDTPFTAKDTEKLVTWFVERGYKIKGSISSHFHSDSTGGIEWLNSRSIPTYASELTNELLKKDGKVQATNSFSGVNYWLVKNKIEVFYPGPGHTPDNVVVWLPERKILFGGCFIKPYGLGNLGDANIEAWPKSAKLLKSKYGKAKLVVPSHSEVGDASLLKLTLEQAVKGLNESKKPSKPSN
# Experimental Details: biochemical
# Type: biochemical
# Condition Label: fluorescence assay, CCF2-FA substrate, 2 pM enzyme, 2 hours at 25° C.; read-out: IMP-1 IC50
pIC50 here: minus log base 10 of the concentration, concentration in moles per litre.

# get_value(readout='pIC50', item= Nc1nc2c(-c3ccc(S(=O)(=O)NC[C@@]4(N)CCNC4)c(S(N)(=O)=O)c3-c3nn[nH]n3)cccc2s1 ) 10.12

# get_value(readout='pIC50', item= NS(=O)(=O)c1c(S(=O)(=O)N[C@@H]2CCNC2)ccc(-c2ccc3c(c2)C(=O)NC3)c1-c1nnn[nH]1 ) 9.56

# get_value(readout='pIC50', item= NC[C@H](N)CNS(=O)(=O)c1ccc(-c2cnc(N)s2)c(-c2nn[nH]n2)c1S(N)(=O)=O ) 8.89

# get_value(readout='pIC50', item= CN1CC[C@H](CNS(=O)(=O)c2ccc(-c3cccc4sc(N)nc34)c(-c3nnn[nH]3)c2S(N)(=O)=O)C1 ) 9.78

* * *

# Experimental System: IMP-1 (Serratia marcescens, UniProt P52699)
# Experimental Details: biochemical
# Type: biochemical
# Condition Label: fluorescence assay, CCF2-FA substrate, 2 pM enzyme, 2 hours at 25° C.; read-out: IMP-1 IC50
Answer each item with its documented pIC50.
pIC50 here: minus log base 10 of the concentration, concentration in moles per litre.

# get_value(readout='pIC50', item= Cc1ccc(-c2ccc(S(N)(=O)=O)c(S(N)(=O)=O)c2-c2nn[nH]n2)c2nc(N)sc12 [Example 6] ) 10.19

# get_value(readout='pIC50', item= NCC(F)(F)c1nc2c(-c3ccc(S(=O)(=O)N[C@H]4CCNC4)c(S(N)(=O)=O)c3-c3nn[nH]n3)cccc2[nH]1 [Example 446] ) 9.35

# get_value(readout='pIC50', item= NCCn1nnc2c(-c3ccc(S(=O)(=O)N[C@@H]4CCNC4)c(S(N)(=O)=O)c3-c3nn[nH]n3)cccc21 [Example 289] ) 8.91

# get_value(readout='pIC50', item= NCC(CO)(CO)NS(=O)(=O)c1ccc(-c2cccc3[nH]c(N)nc23)c(-c2nn[nH]n2)c1S(N)(=O)=O [Example 247] ) 9.30

# get_value(readout='pIC50', item= Nc1nc2c(-c3ccc(S(=O)(=O)N[C@H]4CN[C@@H](C(=O)O)C4)c(S(N)(=O)=O)c3-c3nnn[nH]3)cccc2s1 [Example 82] ) 9.69

# get_value(readout='pIC50', item= Nc1nc2c(-c3ccc(S(=O)(=O)NCC4CCC(=O)N4)c(S(N)(=O)=O)c3-c3nnn[nH]3)cccc2s1 (stereo not shown) [Example 19] ) 9.31

# get_value(readout='pIC50', item= Nc1nc2c(-c3ccc(S(=O)(=O)N4CC[S+]([O-])CC4)c(S(N)(=O)=O)c3-c3nnn[nH]3)cccc2s1 [Example 44] ) 8.65

# get_value(readout='pIC50', item= NC(=O)c1nc2c(-c3ccc(S(=O)(=O)N[C@@H]4CCNC4)c(S(N)(=O)=O)c3-c3nn[nH]n3)cccc2[nH]1 [Example 271] ) 9.57

# get_value(readout='pIC50', item= NCC(=O)NC1CCC[C@@H](c2ccc(S(=O)(=O)N[C@@H]3CCNC3)c(S(N)(=O)=O)c2-c2nn[nH]n2)C1 (stereo partly shown) [Example 270] ) 8.64

# get_value(readout='pIC50', item= Nc1nc2c(-c3ccc(S(=O)(=O)NCc4ccccn4)c(S(N)(=O)=O)c3-c3nnn[nH]3)cccc2s1.O=C(O)C(F)(F)F [Example 106, 2,2,2-trifluoroacetate] ) 9.42

# get_value(readout='pIC50', item= NCc1nc2cc(-c3ccc(S(=O)(=O)N[C@@H]4CCNC4)c(S(N)(=O)=O)c3-c3nn[nH]n3)ccc2[nH]1 [Example 274] ) 9.31

# get_value(readout='pIC50', item= Cc1cc(-c2ccc(S(=O)(=O)NC[C@H](O)CN)c(S(N)(=O)=O)c2-c2nn[nH]n2)cnc1N [Example 477] ) 9.07

# get_value(readout='pIC50', item= CN(C)C1CCN(S(=O)(=O)c2ccc(-c3cccc4sc(N)nc34)c(-c3nnn[nH]3)c2S(N)(=O)=O)CC1 [Example 26] ) 8.94
